Source: the supplement of paper PMC10567573

B1: ESRRA (parent)
chain: LGVAQRSLPLQDELAFAEDLVLDE

Variants of: B1
Assay: protein stability index of a GFP-peptide fusion (GPS, HEK-293T) (PSI 1-6); higher = more stable;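 further: lentivirally expressed fusions sorted by FACS into six bins by GFP to DsRed ratio, PSI derived from sequencing read proportions per bin multiplied by bin number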
Details: c terminus: a fixed tail appended
# if value of protein stability index reaches 2, tag True; if it stays below, tag False

{"variant.string": "E18S", "class.assignment": "True"}
{"variant.string": "L14K", "class.assignment": "True"}
{"variant.string": "A15G", "class.assignment": "True"}
{"variant.string": "R6H", "class.assignment": "True"}
{"variant.string": "D19M", "class.assignment": "True"}

Has S7Q a recorded protein stability index greater than or equal to 2? True

Please check the record E24C and state if its protein stability index is at or above 2. False

Does protein stability index meet or surpass 2 for D19T ? False
